# Tested on: eIF2α phosphorylation (eIF2•GTP•Met-tRNAi ternary complex; HRI activation)
# assay-remarks: surrogate dual luciferase eIF2α phosphorylation (ternary complex) assay
# Type: cell-based, human
# applied-conditions: 15 μM compound
Kindly note that classification relies on Emax (F/R) with these boundaries: lower range: < 0.8 F/R; middle range: ≥ 0.8 F/R and < 0.9 F/R; upper range: ≥ 0.9 F/R

In: Kindly identify the class of O=C(Nc1cccc(F)c1)N[C@H]1CC[C@H](OCc2c(F)cccc2F)CC1 [II-1m] .
Out: lower range

In: Kindly identify the class of O=C(Nc1cccc(I)c1)N[C@H]1CC[C@H](OCc2c(F)cccc2F)CC1 [II-4m] .
Out: lower range

In: Kindly identify the class of O=C(Nc1ccccc1Br)N[C@H]1CC[C@H](OCc2c(F)cccc2F)CC1 [II-3o] .
Out: upper range

In: Kindly identify the class of O=C(Nc1ccccc1F)N[C@H]1CC[C@H](OCc2c(F)cccc2F)CC1 [II-1o] .
Out: upper range

In: Kindly identify the class of O=C(Nc1ccc([N+](=O)[O-])cc1)N[C@H]1CC[C@H](OCc2c(F)cccc2F)CC1 [II-9p] .
Out: middle range

In: Kindly identify the class of O=C(Nc1ccccc1Cl)N[C@H]1CC[C@H](OCc2c(F)cccc2F)CC1 [II-2o] .
Out: lower range

###

# Test system: eIF2α phosphorylation (eIF2•GTP•Met-tRNAi ternary complex; HRI activation)
# assay-remarks: surrogate dual luciferase eIF2α phosphorylation (ternary complex) assay
# Format: cell-based, human
# applied-conditions: Homo sapiens; DMSO = 1; maximum tested concentration 20 μM; read-out: Emax: Maximum activity of compound expressed as fold over vehicle
Kindly note that classification relies on maximal fold induction with these boundaries: lo = under 5, mid = from 5 up to 10, hi = 10 and over

In: Kindly identify the class of CC(=O)Nc1cc(C(F)(F)F)ccc1O[C@H]1CC[C@H](NC(=O)Nc2cccc(C(F)(F)F)c2)CC1 .
Out: lo

In: Kindly identify the class of NC(=O)c1cc(O[C@H]2CC[C@H](NC(=O)Nc3cccc(C(F)(F)F)c3)CC2)ccc1C(F)(F)F .
Out: lo

In: Kindly identify the class of O=C(Nc1cccc(OC(F)(F)F)c1)N[C@H]1CC[C@H](Oc2ccc(OC(F)(F)F)cc2)CC1 .
Out: hi

In: Kindly identify the class of O=C(Nc1cccc(C(F)(F)F)c1)N[C@H]1CC[C@H](Oc2ccc(C(F)(F)F)cn2)CC1 .
Out: mid

In: Kindly identify the class of O=C(Nc1cccc(OC(F)(F)F)c1)N[C@H]1CC[C@H](Oc2ccc(C(F)(F)F)cc2)CC1 .
Out: hi

In: Kindly identify the class of N#Cc1cc(C(F)(F)F)ccc1O[C@H]1CC[C@H](NC(=O)Nc2cccc(C(F)(F)F)c2)CC1 .
Out: mid

In: Kindly identify the class of O=C(Nc1cccc(C(F)(F)F)c1)N[C@H]1CC[C@H](Oc2ccc(C(F)(F)F)cc2)CC1 .
Out: hi

In: Kindly identify the class of O=C(Nc1cccc(OC(F)(F)F)c1)N[C@H]1CC[C@H](Oc2ccc(C(F)(F)F)cc2[N+](=O)[O-])CC1 .
Out: hi

In: Kindly identify the class of N#Cc1ccc(O[C@H]2CC[C@H](NC(=O)Nc3cccc(C(F)(F)F)c3)CC2)cc1 .
Out: lo

In: Kindly identify the class of NC(=O)c1cc(C(F)(F)F)ccc1O[C@H]1CC[C@H](NC(=O)Nc2cccc(C(F)(F)F)c2)CC1 .
Out: mid

In: Kindly identify the class of O=C(Nc1cccc(C(F)(F)F)c1)N[C@H]1CC[C@H](Oc2ccc(C(F)(F)F)cc2[N+](=O)[O-])CC1 .
Out: hi
